The reported measurements were obtained from ChEMBL document CHEMBL1201862.

- Tested on: Streptococcus sp. 'group A'
- experiment description: growth inhibition of control SK(-) GAS strain, dose response, counter-screen for streptokinase expression inhibitor project, luminescence, kanamycin, BacTiterGlo, confirmation (AID 1900)
- Type: functional, organism-based
Active and inactive are the calls of the source.

smiles notation | EC50
COc1ccc(N=Nc2cc(-c3ccccc3)ccc2O)cc1 | 34.7 µM (active)
CC(C)(C)c1ccc(C(=O)NC(=S)NNC(=O)COc2ccccc2)cc1 | 0.067 µM (active)
C=C1S/C(=N/c2ccccc2Cl)N(C(=O)c2sc3ccccc3c2Cl)C12CCCCC2 | 20.2 µM (active)
Cc1cc(Oc2ccc(-c3ccccc3)cc2)nc(N2CCOCC2)n1 | 49.7 µM (active)

###

- assay system: Protein RecA (Mycobacterium tuberculosis)
- experiment description: Fluorescence Cell-Free Homogeneous Dose Retest to Identify Inhibitors of RecA-Intein Splicing Activity. [Related pubchem assays (depositor defined):AID2097, AID2223, AID489010, AID492950]
- Assay type: functional
Activity calls are given as the source filed them.
Possible outcomes: Y for active, N for inactive

compound | label
Cc1cccn2c(CNCC3(c4ccccc4)CCCC3)c(C(=O)N3CCOCC3)nc12 | N
Cc1cccc(CN2CCN(C(=O)CCl)CC2)c1 | Y
Nc1nc(-c2ccc(Br)cc2)c(S(=O)(=O)c2ccccc2)s1 | N
CC(C)(C)OC(=O)NCCc1nnc(S(=O)(=O)Cc2ccc(Cl)cc2Cl)o1 | Y
CN(N)C(S)=Nc1ccc(Cl)cc1 | N
CCCc1nnc(NC(=O)c2nc(S(=O)(=O)Cc3ccc(C)cc3)ncc2Cl)s1 | Y
COc1ccc(C2=NN(C(=O)/C=C/c3ccccc3)C(c3ccccc3)C2)c(OC(C)=O)c1 (stereo not drawn) | Y
Cc1nnc(Sc2nc3ccccc3o2)c2ccccc12 | Y
O=C(Nc1ccccc1)NN(C(=O)CCl)c1ccccc1 | Y
O=C1C2=[N+]([O-])C3CCCCC3[N+]([O-])=C2c2ccccc21 (stereo not drawn) | Y
COc1ccc(C2CC(c3cccs3)=NN2C(=O)CCl)cc1OC (stereo not drawn) | Y
O=C(/C=C/c1cccs1)Nc1scc(-c2ccccc2)c1C(=O)O | Y
CCOC(=O)c1ccc(NC(=O)Cn2ncc(Cl)c(Cl)c2=O)cc1 | Y
CCOc1cc(/C=N\NC(=O)OC(C)(C)C)ccc1OC(=O)c1ccco1 | Y
COC(=O)CSc1nc2sc3c(c2c(=O)n1C1CCCCC1)CCN(C)C3 | Y
CCCC(=O)OCCNc1cc(SCc2ccco2)c2nonc2c1[N+](=O)[O-] | Y
O=[N+]([O-])C(/C=C(/Cl)[N+](=O)[O-])=C(N1CCCCC1)N1CCCCC1 | Y

###

Below, each of the compounds is paired with its reported AC50 value.
- assay system: FAD-linked sulfhydryl oxidase ALR (Homo sapiens)
- Sequence (P55789 whole entry): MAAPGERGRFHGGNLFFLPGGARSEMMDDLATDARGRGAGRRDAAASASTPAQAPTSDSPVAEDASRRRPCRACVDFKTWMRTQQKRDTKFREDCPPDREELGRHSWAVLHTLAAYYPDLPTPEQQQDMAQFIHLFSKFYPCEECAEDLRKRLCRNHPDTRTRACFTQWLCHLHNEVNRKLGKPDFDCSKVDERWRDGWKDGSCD
- experiment description: inhibitors of human ALR sulfhydryl oxidase, dose response, biochemical, H2O2 detection, luminescence, cherry-pick (AID 493248)
The source made the active and inactive calls.

compound | assay system | AC50
COc1ccc(NCc2nc3ccccc3n2C)cc1 | FAD-linked sulfhydryl oxidase ALR (Homo sapiens) | 3.46 µM (active)
COc1ccc(N2CCC(CNC(=O)Nc3ccc(OC)cc3OC)C2)cc1 (configuration not stated) | FAD-linked sulfhydryl oxidase ALR (Homo sapiens) | 17.2 µM (active)
Cc1nnc(Sc2nc3ccccc3o2)c2ccccc12 | FAD-linked sulfhydryl oxidase ALR (Homo sapiens) | 3.26 µM (active)
S=c1[nH]c2ccccc2n2c(=S)[nH]nc12 | FAD-linked sulfhydryl oxidase ALR (Homo sapiens) | 2.35 µM (active)
CC(C)(C)N1C(=O)c2ccc(C(=O)Nc3ccc(O)cc3)cc2C1=O | FAD-linked sulfhydryl oxidase ALR (Homo sapiens) | 3.13 µM (active)
O=C(O)c1ccc2c(c1)C(=O)N(c1ccc(Nc3ccccc3)cc1)C2=O | FAD-linked sulfhydryl oxidase ALR (Homo sapiens) | 25.8 µM (active)
Cc1ccc(NC2CCCN(C(=O)C3CCCC3)C2)cc1C (configuration not stated) | FAD-linked sulfhydryl oxidase ALR (Homo sapiens) | 4.78 µM (active)
